Exercise: state measured hGIPR cAMP Rel EC50 for each of the binders provided.
- TARGET_OR_SYSTEM: T1, human gastric inhibitory peptide receptor (GIPR) (human, UniProt P48546 22-466)
- T1 sequence (looked up): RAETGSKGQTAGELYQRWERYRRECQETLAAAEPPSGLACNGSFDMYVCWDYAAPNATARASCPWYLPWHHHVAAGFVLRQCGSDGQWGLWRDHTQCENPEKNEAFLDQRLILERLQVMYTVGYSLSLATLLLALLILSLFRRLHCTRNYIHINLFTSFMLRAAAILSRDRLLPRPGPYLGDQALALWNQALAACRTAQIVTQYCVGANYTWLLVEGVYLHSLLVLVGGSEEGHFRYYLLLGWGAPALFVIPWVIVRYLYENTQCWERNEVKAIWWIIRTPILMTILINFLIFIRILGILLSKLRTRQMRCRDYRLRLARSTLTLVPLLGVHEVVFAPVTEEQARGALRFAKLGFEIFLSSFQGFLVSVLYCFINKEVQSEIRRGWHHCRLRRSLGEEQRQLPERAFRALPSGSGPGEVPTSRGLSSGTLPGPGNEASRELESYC
- EXPERIMENT_SUMMARY: cell-based or functional assay
Numeric answer only, unit nM assumed.

Sure, the documented hGIPR cAMP Rel EC50 for YXEGTFTSDYSIXLDKKAQXEFIEYLIAGGPSSG (Aib2, αMeL13, (2-[2-(2-Amino-ethoxy)-ethoxy]-acetyl)2-(γ-Glu)-CO-(CH2)16-CO2H on K17, Aib20, C-terminal NH2) [Example 306] is 0.0191

Item: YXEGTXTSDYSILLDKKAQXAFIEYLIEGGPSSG (Aib2, αMeF6, (2-[2-(2-Amino-ethoxy)-ethoxy]-acetyl)2-(γ-Glu)-CO-(CH2)16-CO2H on K17, Aib20, C-terminal NH2) [Example 301] | hGIPR cAMP Rel EC50: 0.0346

YXEGTFTSDYSILLDKKAQHAFIEYLIEGGPSSGAPPPS (Aib2, (2-[2-(2-Amino-ethoxy)-ethoxy]-acetyl)2-(γ-Glu)-CO-(CH2)18-CO2H on K17, C-terminal NH2) [Example 255] has a reported hGIPR cAMP Rel EC50 of 0.102

Recorded hGIPR cAMP Rel EC50 (binder XXEGTFTSDYSIXLDXKAQXEFIXYLIEGGPSSGAPPPS (D-Tyr1, Aib2, αMeL13, Orn16, (2-[2-(2-Amino-ethoxy)-ethoxy]-acetyl)2-(γ-Glu)-CO-(CH2)18-CO2H on K17, Aib20, D-Glu24, C-terminal NH2) [Example 355] ): 0.685

Measured hGIPR cAMP Rel EC50 of FXEGTFTSDYSIXLDKKAQXAFIEYLIEAGPSSGAPPPS (Aib2, αMeL13, (2-[2-(2-Amino-ethoxy)-ethoxy]-acetyl)2-(γ-Glu)-CO-(CH2)16-CO2H on K17, Aib20, C-terminal NH2) [Example 328] : 0.0965

The reported hGIPR cAMP Rel EC50 of the binder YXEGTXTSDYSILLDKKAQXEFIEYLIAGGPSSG (Aib2, αMeF6, (2-[2-(2-Amino-ethoxy)-ethoxy]-acetyl)2-(γ-Glu)-CO-(CH2)16-CO2H on K17, Aib20, C-terminal NH2) [Example 310] was 0.0176

Sourced from patent US20220048967A1
